target: TrkA (Homo sapiens, UniProt P04629); assay: Kinase profiling (radiometric filter-binding); assay type: biochemical; settings: 1 µM inhibitor, read-out: Residual activity, %
Sequence (P04629 33-796): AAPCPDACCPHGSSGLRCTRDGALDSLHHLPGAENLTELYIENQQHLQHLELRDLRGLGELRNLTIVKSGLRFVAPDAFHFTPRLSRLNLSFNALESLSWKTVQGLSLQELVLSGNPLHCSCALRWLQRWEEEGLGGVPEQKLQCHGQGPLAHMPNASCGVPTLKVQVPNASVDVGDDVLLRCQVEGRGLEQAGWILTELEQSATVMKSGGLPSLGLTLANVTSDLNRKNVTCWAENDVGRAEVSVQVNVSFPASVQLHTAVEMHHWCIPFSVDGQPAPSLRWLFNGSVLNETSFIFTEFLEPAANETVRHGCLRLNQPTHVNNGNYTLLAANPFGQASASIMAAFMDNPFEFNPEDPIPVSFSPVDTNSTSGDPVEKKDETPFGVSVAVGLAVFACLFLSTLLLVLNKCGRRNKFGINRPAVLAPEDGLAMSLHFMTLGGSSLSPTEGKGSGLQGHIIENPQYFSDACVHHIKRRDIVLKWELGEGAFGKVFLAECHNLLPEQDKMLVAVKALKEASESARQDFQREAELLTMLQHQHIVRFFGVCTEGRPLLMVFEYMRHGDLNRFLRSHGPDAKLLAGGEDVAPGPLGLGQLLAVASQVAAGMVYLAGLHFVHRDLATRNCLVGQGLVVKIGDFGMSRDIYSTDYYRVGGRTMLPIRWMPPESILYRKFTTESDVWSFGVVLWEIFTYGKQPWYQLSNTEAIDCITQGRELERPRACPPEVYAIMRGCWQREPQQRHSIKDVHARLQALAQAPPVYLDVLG
Square brackets hold non-standard residues; d marks the D form. Peptide text beside a SMILES is read from it. * marks the point of attachment. X3 = O=C(CCCCCNCc1nc2c(sc3cc(Br)cnc32)c(=O)[nH]1)*
PARAMETER MEASURED: remaining activity at 1 µM (%)
Enter your answer as a number in %; do not include the unit.

Answered cases to consult:
[[record]]
compound = "N=C(N)NCCC[C@@H](NC(=O)CNC(=O)[C@@H](CCCNC(=N)N)NC(=O)[C@@H](CCCNC(=N)N)NC(=O)CCCCCCCNCc1nc2c(sc3ccc(Br)cc32)c(=O)[nH]1)C(=O)N[C@H](CCCCN)C(N)=O [Compound 2, BBTP-Aoc-(D-Arg)2-Gly-D-Arg-D-Lys-NH2]"
parameter_measured = "remaining activity at 1 µM"
unit_descriptor = "%"
number = 128

[[record]]
compound = "N=C(N)NCCC[C@@H](NC(=O)CCCCCNCc1nc2c(sc3cc(Br)cnc32)c(=O)[nH]1)C(=O)N[C@H](CCCNC(=N)N)C(=O)N[C@H](CCCNC(=N)N)C(=O)N[C@H](CCCNC(=N)N)C(=O)N[C@H](CCCNC(=N)N)C(=O)N[C@H](CCCNC(=N)N)C(=O)N[C@H](CCCCN)C(N)=O [ARC-3126, BPTP-Ahx-(D-Arg)6-D-Lys-NH2] (X3-[dR][dR][dR][dR][dR][dR][dK]-NH2)"
parameter_measured = "remaining activity at 1 µM"
unit_descriptor = "%"
number = 112

[[record]]
compound = "N=C(N)NCCC[C@@H](NC(=O)CNC(=O)[C@@H](CCCNC(=N)N)NC(=O)[C@@H](CCCNC(=N)N)NC(=O)CCCCCCCNCc1nc2c(sc3cc(Br)cnc32)c(=O)[nH]1)C(=O)N[C@H](CCCCN)C(N)=O [Compound 1, BPTP-Aoc-(D-Arg)2-Gly-D-Arg-D-Lys-NH2]"
parameter_measured = "remaining activity at 1 µM"
unit_descriptor = "%"
number = 106

[[record]]
compound = "N=C(N)NCCC[C@@H](NC(=O)CNC(=O)[C@@H](CCCNC(=N)N)NC(=O)[C@@H](CCCNC(=N)N)NC(=O)Cn1cc(CNCc2nc3c(sc4ccc(Br)cc43)c(=O)[nH]2)nn1)C(=O)N[C@H](CCCCN)C(N)=O [Compound 3, BBTP-Amt-(D-Arg)2-Gly-D-Arg-D-Lys-NH2]"
parameter_measured = "remaining activity at 1 µM"
unit_descriptor = "%"
number = 95


Field request: remaining activity at 1 µM | item: N=C(N)NCCC[C@@H](NC(=O)CCCCCNC(=O)Cn1cnc2c(I)c(I)c(I)c(I)c21)C(=O)N[C@H](CCCNC(=N)N)C(=O)N[C@H](CCCNC(=N)N)C(=O)N[C@H](CCCNC(=N)N)C(=O)N[C@H](CCCNC(=N)N)C(=O)N[C@H](CCCNC(=N)N)C(=O)N[C@H](CCCCN)C(N)=O [ARC-3125, TIBI-CH2-C(=O)-Ahx-(D-Arg)6-D-Lys-NH2] 97

###

remaining activity at 1 µM: recorded values
Target: LKB1 (Homo sapiens)
Sequence (Q15831 1-433): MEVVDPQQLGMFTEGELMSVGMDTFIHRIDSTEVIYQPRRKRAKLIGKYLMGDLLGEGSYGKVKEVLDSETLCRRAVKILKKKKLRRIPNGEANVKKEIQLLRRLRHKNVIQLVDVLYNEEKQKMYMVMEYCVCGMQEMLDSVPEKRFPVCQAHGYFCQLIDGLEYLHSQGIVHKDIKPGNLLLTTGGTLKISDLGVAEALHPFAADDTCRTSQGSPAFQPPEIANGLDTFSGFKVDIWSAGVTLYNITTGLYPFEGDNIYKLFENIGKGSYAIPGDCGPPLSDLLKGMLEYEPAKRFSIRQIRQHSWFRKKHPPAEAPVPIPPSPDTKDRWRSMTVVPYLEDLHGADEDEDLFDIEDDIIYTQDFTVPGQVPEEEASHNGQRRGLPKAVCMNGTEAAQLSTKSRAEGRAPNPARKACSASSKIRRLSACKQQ
Sequence (Q7RTN6 1-431 partner): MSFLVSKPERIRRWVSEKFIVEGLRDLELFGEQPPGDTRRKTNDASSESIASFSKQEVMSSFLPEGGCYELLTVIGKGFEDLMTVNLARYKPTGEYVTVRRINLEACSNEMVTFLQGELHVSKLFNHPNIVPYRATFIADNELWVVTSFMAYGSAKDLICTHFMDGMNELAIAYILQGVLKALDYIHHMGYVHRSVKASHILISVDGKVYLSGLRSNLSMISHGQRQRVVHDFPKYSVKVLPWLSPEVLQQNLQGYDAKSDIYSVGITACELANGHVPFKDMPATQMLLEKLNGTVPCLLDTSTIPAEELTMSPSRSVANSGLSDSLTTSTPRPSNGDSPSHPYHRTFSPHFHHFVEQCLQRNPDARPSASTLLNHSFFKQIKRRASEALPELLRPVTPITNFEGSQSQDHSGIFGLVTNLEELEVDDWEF
Sequence (Q9Y376 1-341 partner): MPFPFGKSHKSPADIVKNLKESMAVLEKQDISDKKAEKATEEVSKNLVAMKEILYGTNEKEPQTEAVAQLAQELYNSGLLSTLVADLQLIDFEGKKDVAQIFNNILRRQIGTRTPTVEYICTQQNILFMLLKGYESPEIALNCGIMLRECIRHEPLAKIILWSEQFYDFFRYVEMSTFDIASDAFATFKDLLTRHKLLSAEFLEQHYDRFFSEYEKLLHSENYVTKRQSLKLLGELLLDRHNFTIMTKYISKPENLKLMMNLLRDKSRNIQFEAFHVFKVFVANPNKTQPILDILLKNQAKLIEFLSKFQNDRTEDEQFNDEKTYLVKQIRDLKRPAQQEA
Assay: Kinase profiling (radiometric filter-binding)
Assay type: biochemical
Settings: LKB1, 1 µM inhibitor; read-out: Residual activity, %
Square brackets hold non-standard residues; d marks the D form. Peptide text beside a SMILES is read from it. * marks the point of attachment. X3 = O=C(CCCCCNCc1nc2c(sc3cc(Br)cnc32)c(=O)[nH]1)*
Kindly answer with a numeric value in %, unit omitted.

# value lookup — system LKB1 (Homo sapiens), readout remaining activity at 1 µM, item `N=C(N)NCCC[C@@H](NC(=O)CNC(=O)[C@@H](CCCNC(=N)N)NC(=O)[C@@H](CCCNC(=N)N)NC(=O)Cn1cc(CNCc2nc3c(sc4ccc(Br)cc43)c(=O)[nH]2)nn1)C(=O)N[C@H](CCCCN)C(N)=O` 115

How about this compound: N=C(N)NCCC[C@@H](NC(=O)CCCCCNCc1nc2c(sc3cc(Br)cnc32)c(=O)[nH]1)C(=O)N[C@H](CCCNC(=N)N)C(=O)N[C@H](CCCNC(=N)N)C(=O)N[C@H](CCCNC(=N)N)C(=O)N[C@H](CCCNC(=N)N)C(=O)N[C@H](CCCNC(=N)N)C(=O)N[C@H](CCCCN)C(N)=O [ARC-3126, BPTP-Ahx-(D-Arg)6-D-Lys-NH2] (X3-[dR][dR][dR][dR][dR][dR][dK]-NH2) 114
